assay: Binding affinity to MD2 (unknown origin) assessed as equilibrium dissociation constant by surface plasmon resonance assay; parameters: species or system Homo sapiens
measuredAttribute: Kd (µM)

C=CC(C)(C)C(=O)Nc1cccc2c1C(=O)C[C@@H]1[C@H]2[C@H](OC(C)=O)[C@@H](C)CN1C	14.5

====

Item-by-item account of IC50
system: RAW264.7; test: Antiinflammatory activity against LPS-induced mouse RAW264.7 cells assessed as inhibition of NO production preincubated for 1 hr followed by LPS stimulation and measured after 24 hrs by Greiss reagent based assay; assay type: functional, cell-based
measuredAttribute: IC50 (µM)

C=CC(C)(C)c1[nH]c2cccc3c2c1C[C@H]1NC[C@@H](C)[C@H](OC(C)=O)[C@H]31	60.4
C=CC(C)(C)C(=O)Nc1cccc2c3cc(C)cn(C)c-3cc(=O)c12	9.47
C=CC(C)(C)c1[nH]c2cccc3c2c1C[C@@H]1[C@@H]3[C@@H](OC(C)=O)[C@H](C)CN1C	22.8

These measurements were taken from ChEMBL document CHEMBL4831509.
